The measured values listed here are drawn from the supplement of paper PMC12808144.

Test system: Mel-DCC-11-R
Assay: cell viability relative to DMSO control (fraction of DMSO control); higher = less cytotoxic, active = 0.8 or less
Details: 1 µM; 120 h; vemurafenib co-treatment 0 µM
The reply should be one of these categories: active, inactive

Req: Check the results log: what was the call for Nc1ncn([C@@H]2O[C@H](CO)[C@@H](O)[C@H]2O)c(=O)n1 [Mylosar] ?
Resp: inactive

Req: Kindly provide the recorded test outcome for the following molecule: COc1ccc2[nH]cc(CCNC(C)=O)c2c1 [Melatonine]
Resp: active

Req: What call does the record list for CS(=O)(=O)CCNCc1ccc(-c2ccc3ncnc(Nc4ccc(OCc5cccc(F)c5)c(Cl)c4)c3c2)o1.Cc1ccc(S(=O)(=O)O)cc1.Cc1ccc(S(=O)(=O)O)cc1 [Lapatinib Ditosylate] ?
Resp: inactive

Req: State the result this test recorded for CC(O)(P(=O)(O)O)P(=O)(O)O [Etidronate] .
Resp: inactive

Continuing:
Req: Assay outcome for CCN(CC)CCNC(=O)c1c(C)[nH]c(/C=C2\C(=O)Nc3ccc(F)cc32)c1C.C[C@@H](CC(=O)O)C(=O)O [Sunitinib Malate] : what was it?
Resp: inactive

Req: How was CC1=C(CC(=O)O)c2cc(F)ccc2/C1=C\c1ccc(S(C)=O)cc1 (configuration not stated) [Sulindac] classified in this test?
Resp: inactive

Req: Per the records of this test, what outcome belongs to CC1=C(/C=C/C(C)=C/C=C/C(C)=C/C=C/C=C(C)/C=C/C=C(C)/C=C/C2=C(C)CCCC2(C)C)C(C)(C)CCC1 [Beta-Carotene] ?
Resp: inactive
